Each recorded value in this set is attributed to PubChem BioAssay AID2205.

# Assay Comment: tubulin staining increase by stabilizing compounds – imaging, high-content imaging, primary screen (AID 2205)
# Experimental Setup: HeLa tubulin immunostaining HCS, 24 h, at 10 µM, share of cells brighter than vehicle mean+2SD
The whole screen tested about 200,000 compounds, of which about 1,600 (0.8%) were called active.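 The calls were made as follows: active = plate Z-score above 3 for both tubulin-high and condensed-nucleus cell shares, with cell loss under 80%, at 10 µM; inactive = the rest, inconclusive results apart.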 Shown is part of a subset that was picked to be rich in actives.
Hi there, use one of these labels in your reply, thanks! true (1) (active), false (0) (inactive)

[in] Please let me know the test result on file for COC(=O)c1ccc(NCC(=O)N2CCCCCC2)cc1 .
[out] false (0)

[in] Please let me know the test result on file for CC1CCN(c2ccc([N+](=O)[O-])cc2C(N)=O)CC1 .
[out] false (0)

[in] Please let me know the test result on file for Cn1c2ccccc2c(=O)c2c(=O)n(Cc3ccco3)c(COc3ccccc3)nc21 .
[out] true (1)

[in] Please let me know the test result on file for COc1ccc(C2=NOC(C(=O)NCc3ccco3)C2)cc1OC (stereo not drawn) .
[out] true (1)

[in] Please let me know the test result on file for COc1ccc(-c2cc(C(=O)NCc3ccco3)no2)cc1OC .
[out] false (0)

[in] Please let me know the test result on file for COc1cc2c(cc1OC)C(c1ccc(C)o1)CC(=O)N2 (stereo not drawn) .
[out] false (0)

[in] Please let me know the test result on file for Cc1ccc(C2CC(=O)NC(SCC(=O)OCc3ccccc3)=C2C#N)o1 (stereo not drawn) .
[out] true (1)

[in] Please let me know the test result on file for O=C(COC(=O)c1cnc(Cl)c(Cl)c1)NCc1ccco1 .
[out] false (0)

[in] Please let me know the test result on file for CCOC(=O)CSC1=C(C#N)C(c2ccco2)C(C(=O)OCc2ccccc2)=C(C)N1 (stereo not drawn) .
[out] true (1)

[in] Please let me know the test result on file for O=C(O)CCN(Cc1ccccc1)S(=O)(=O)c1c(Cl)cccc1Cl .
[out] false (0)

[in] Please let me know the test result on file for C=CCSC1=C(C#N)C(c2cc(Br)c(O)c(OC)c2)CC(=O)N1 (stereo not drawn) .
[out] false (0)

[in] Please let me know the test result on file for CCOC(=O)c1cnc2ccc(F)cc2c1Nc1ccc2c(c1)OCCO2 .
[out] false (0)

[in] Please let me know the test result on file for O=c1[nH]c(N2CCN(Cc3ccc4c(c3)OCO4)CC2)nc2c1CCCC2 .
[out] false (0)

[in] Please let me know the test result on file for C=CCOC(=O)C1=C(C)NC(SCC(=O)OCC)=C(C#N)C1c1ccc(C)cc1 (stereo not drawn) .
[out] false (0)

[in] Please let me know the test result on file for CCc1nc2ccccc2c(C(=O)NCc2ccc(OC)cc2)c1C .
[out] false (0)

[in] Please let me know the test result on file for CCCc1nc2c(c(=O)c3ccccc3n2C)c(=O)n1C1CCCCCC1 .
[out] false (0)

[in] Please let me know the test result on file for CCCn1c(SCC(=O)Nc2ccc(C)c(S(=O)(=O)N3CCOCC3)c2)n[nH]c1=O .
[out] false (0)

[in] Please let me know the test result on file for COC(=O)CSC1=C(C#N)C(c2ccccc2OC)C(C(=O)OC)C(=O)N1 (stereo not drawn) .
[out] false (0)

[in] Please let me know the test result on file for Cc1cc(C(=O)OCC(=O)NCc2ccco2)c(C)n1-c1ccccc1 .
[out] true (1)

[in] Please let me know the test result on file for COc1ccc([N+](=O)[O-])cc1NC(=O)CC1SC(=Nc2cccc(C)c2C)N(/N=C(\C)c2ccc(C)cc2)C1=O (stereo not drawn) .
[out] false (0)

[in] Please let me know the test result on file for Cc1ccc(CNC(=O)C2CC(c3ccccc3[N+](=O)[O-])=NO2)o1 (stereo not drawn) .
[out] false (0)

[in] Please let me know the test result on file for CC(C)(C)NC(=O)Cn1cnc2cc([N+](=O)[O-])ccc2c1=O .
[out] false (0)

[in] Please let me know the test result on file for O=C(COC(=O)c1cc(S(=O)(=O)N2CCCCC2)ccc1Cl)NCc1ccco1 .
[out] false (0)

----------
# Assay Comment: tubulin staining increase by stabilizing compounds – imaging, high-content imaging, primary screen (AID 2205);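 as to % tubulin-high responders: anti alpha tubulin signal scored within the nucleus-defined area of each cell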
# Experimental Setup: HeLa tubulin immunostaining HCS, 24 h, at 10 µM; stronger effect = higher value, share of cells brighter than vehicle mean+2SD
Out of some 200,000 compounds screened, about 1,600 (0.8%) were called active. For the sample, actives were picked, then their nearest neighbours and some compounds at random.
// bucketize % tubulin-high responders: low end = under 2%, middle = from 2% up to 20%, high end = 20% and over

[in] Class label required: CC(/C=N/NC(=O)c1cc(-c2ccc3ccccc3c2)n[nH]1)=C\c1ccco1
[out] middle

[in] Class label required: COc1ccc(/C=C/CN2CCN(Cc3ccc(C)cc3)C(CCO)C2)cc1 (stereo not given)
[out] middle

[in] Class label required: CC(C)(C)c1nc2ccccc2c(=O)n1N1C(=O)c2ccccc2C1=O
[out] high end

[in] Class label required: COc1cc(/C=C(\C#N)c2nc3c(s2)CC(C)CC3)ccc1O (stereo not given)
[out] low end

[in] Class label required: CCOc1cccc(C(=O)Nc2nnc(-c3cccs3)s2)c1
[out] low end

[in] Class label required: O=C(CN1CCN(Cc2ccc(F)cc2Cl)C1=O)NCc1cccs1
[out] low end

[in] Class label required: CCOC(=O)N1CCN(S(=O)(=O)c2ccc(C(=O)Nc3ccc(F)cc3F)cc2)CC1
[out] high end

[in] Class label required: Cc1ccc(-c2cc(C(=O)N/N=C/C=C/c3ccco3)c3ccccc3n2)cc1C
[out] low end

[in] Class label required: CCOc1cc(/C=C(\C#N)c2nc(-c3cccs3)c(NC(C)=O)s2)ccc1O
[out] middle

[in] Class label required: CCC1(CC)Cc2ccccc2-c2nc3ccccc3c(=O)n21
[out] middle

----------
# Assay Comment: tubulin staining increase by stabilizing compounds – imaging, high-content imaging, primary screen (AID 2205)
# Experimental Setup: HeLa tubulin immunostaining HCS, 24 h, at 10 µM; measured here: nuclear condensation Hoechst responders, stronger effect = higher value, share of cells brighter than vehicle mean+2SD
Screen size: about 200,000 compounds; about 1,600 (0.8%) were called active. This excerpt belongs to a sample that is enriched for actives.
Result Type: % Hoechst-high responders (%)
Kindly provide the numeric value in % only, without the unit symbol.

For CCO[C@H]1OC(C(=O)Nc2ccccc2)=C[C@@H](C2CC2)[C@@H]1CCCO the compound record lists % Hoechst-high responders as 1.42

For CC1CCN(c2ccc([N+](=O)[O-])cc2C(N)=O)CC1 the compound record lists % Hoechst-high responders as 1.09

For O=[N+]([O-])c1ccc(C=Nc2ccc(Cl)cc2Cl)s1 the compound record lists % Hoechst-high responders as 9.57

For O=c1ccc2cc(S(=O)(=O)N3CCN(c4ccccc4)CC3)ccc2o1 the compound record lists % Hoechst-high responders as 1.39

For C/C(CC1CC(C)(C)OC1=O)=N/Nc1nc(-c2ccccc2)cs1 (stereo unspecified) the compound record lists % Hoechst-high responders as 2.24

For Cc1nn(-c2ccccc2)c(-n2cccc2)c1C(=O)O the compound record lists % Hoechst-high responders as 3.22

For Cc1ccc(C(=O)NC(=S)Nc2ccccc2C)cc1 the compound record lists % Hoechst-high responders as 1.22

For Nc1c(C(=O)O)cnn1-c1ccccc1 the compound record lists % Hoechst-high responders as 1.87

For CCN(CC)c1ccc(S(=O)(=O)N2CCOCC2)cc1NC(=O)CSc1cccc[n+]1[O-] the compound record lists % Hoechst-high responders as 1.88

For CCCCCCCC[n+]1cccc(C(=O)N2c3c(nc(N)[nH]c3=O)NC(C)C2C)c1 (stereo unspecified) the compound record lists % Hoechst-high responders as 2.15

For CCOc1cccc(/C=C/c2ccc3ccccc3n2)c1OC(C)=O the compound record lists % Hoechst-high responders as 3.95

----------
# Assay Comment: tubulin staining increase by stabilizing compounds – imaging, high-content imaging, primary screen (AID 2205)
# Experimental Setup: HeLa tubulin immunostaining HCS, 24 h, at 10 µM, share of cells brighter than vehicle mean+2SD
Out of some 200,000 compounds screened, about 1,600 (0.8%) were called active.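 How the source made its calls: active means plate Z-score above 3 for both tubulin-high and condensed-nucleus cell shares, with cell loss under 80%, at 10 µM; inactive means the rest, inconclusive results apart.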 Only a selection was taken, and actives are over-represented in it overall.
Hi there, use one of these labels in your reply, thanks! class 1 (active), class 0 (inactive)

[in] Please let me know the test result on file for COc1cccc(C(=O)Nc2ccc(N3CCCC3)cc2)c1 .
[out] class 1

[in] Please let me know the test result on file for COc1ccccc1C(=O)n1nc(-c2ccccc2)nc1N .
[out] class 0

[in] Please let me know the test result on file for CN(C)CCCn1c(SCCN2C(=O)c3ccccc3C2=O)nc2ccccc2c1=O .
[out] class 0

[in] Please let me know the test result on file for Cc1ccc(-n2c(C)cc(C(=O)CSc3nnc4ccccn34)c2C)cc1 .
[out] class 0

[in] Please let me know the test result on file for Cc1cccc(NC(=O)c2sc(-c3ccccc3)nc2-c2ccc([N+](=O)[O-])cc2)c1 .
[out] class 0

[in] Please let me know the test result on file for CCCCc1cc2c(s1)CCCC/C2=N/O .
[out] class 0

[in] Please let me know the test result on file for CCc1cc2cc(OC)ccc2nc1SCC(=O)Nc1cc(OC)c(OC)cc1C(=O)O .
[out] class 0

[in] Please let me know the test result on file for COC(=O)Cc1ccc(NC(=S)NCc2ccccc2)cc1 .
[out] class 0

[in] Please let me know the test result on file for CCOC(=O)/C(=C\c1ccc([N+](=O)[O-])cc1)C(=O)c1cc(C(C)=O)c(Nc2ccccc2)s1 .
[out] class 1

[in] Please let me know the test result on file for O=C1CC(=O)Nc2cc(S(=O)(=O)N3CCN(c4cccc(C(F)(F)F)c4)CC3)ccc2N1 .
[out] class 1

[in] Please let me know the test result on file for O=c1oc(-c2ccco2)nc2sc3c(c12)CCCCC3 .
[out] class 0

[in] Please let me know the test result on file for O=C(N/N=C/c1c(Cl)[nH]c2ccccc12)c1sc2ccccc2c1Cl .
[out] class 1

[in] Please let me know the test result on file for CN(C)Cc1ccc(F)cc1Sc1cc(Cl)ccc1Cl .
[out] class 0

[in] Please let me know the test result on file for O=C(NC1CCCCCC1)c1cccnc1Sc1ccc(Cl)cc1 .
[out] class 0

[in] Please let me know the test result on file for O=C(Cc1ccccc1)NC(=S)Nc1ccc(N2CCCCC2)cc1 .
[out] class 0

[in] Please let me know the test result on file for O=S(=O)(c1cccc(C(F)(F)F)c1)N1CCN(c2cnccn2)CC1 .
[out] class 0

[in] Please let me know the test result on file for Cc1ccccc1C(=O)Nc1ccc(N2CCCCCC2)cc1 .
[out] class 1

[in] Please let me know the test result on file for O=C(Nc1ccon1)c1sc2ccccc2c1Cl .
[out] class 0

[in] Please let me know the test result on file for COc1cccc(NC(=O)c2ccc(S(=O)(=O)N(C)C)cc2)c1 .
[out] class 0

[in] Please let me know the test result on file for COc1ccc(C(=O)n2nc(-c3ccc(Cl)cc3)nc2N)cc1OC .
[out] class 0

[in] Please let me know the test result on file for O=C(Nc1ccccc1)/C(=C/c1ccc([N+](=O)[O-])cc1)NC(=O)c1ccccc1 .
[out] class 0

[in] Please let me know the test result on file for CN1CCN(c2ccc(NC(=O)c3ccc4c(c3)[nH]c(=O)n4Cc3ccc(F)cc3)cc2)CC1 .
[out] class 0
